Data credit: PubChem BioAssay (Tox21)

- protocolSummary: qHTS assay to identify small molecule agonists of the estrogen related receptor signaling pathway with the pleiotropic PPARgamma coactivator (PGC) from Tox21 10K library (AID 1224842); note: nearly all actives have a fitted effect of over 15% in size
- conditionSummary: PGC/ERR reporter cell line, luciferase ONE-Glo, 18 h; series mostly up to 92.4 µM
Inconclusive results are not listed. Active and inactive are the calls of the source. Calls come from the whole dose curve; as a rule, active = well fitted activation curve with a large enough effect in the repeat runs; inconclusive = weak or mixed curves, or effect the other way; inactive = no such curve, though single readings can be large or run the other way.
Entry note: the call must match one of active, inactive

// below: answered molecules
CCCCC(CC)CN1C(=O)C2C3C=CC(C3)C2C1=O (configuration not stated) | inactive
Nc1ccccc1S(=O)(=O)c1ccccc1 | inactive
COc1ccc(C(=O)c2ccc(OC)cc2O)c(O)c1 | active
CCC(=O)O[C@]1(C(=O)CCl)[C@@H](C)C[C@H]2[C@@H]3CCC4=CC(=O)C=C[C@]4(C)[C@@]3(F)[C@@H](O)C[C@@]21C | inactive
O=C1CCCCCCCCCCCC(=O)OCCO1 | inactive

For this molecule, state the assay outcome: `COCCCN1CCC(NC(=O)c2cc(Cl)c(N)c3c2OCC3)CC1`
inactive

GET /call?item= `COc1cc(C(=O)OCCCN2CCCN(CCCOC(=O)c3cc(OC)c(OC)c(OC)c3)CC2)cc(OC)c1OC` returns the recorded outcome of this test.
inactive

# fetch the recorded call for `Cn1c(=O)cc(Oc2ccc(F)cc2F)c2cnc(NCC(C)(C)O)nc21` here
inactive

In this assay, the call recorded for `C=C(C)C(=O)OCC` was what?
inactive

Tell me the assay call for `C=CC(=O)OCCOc1ccccc1` please.
active
